Target: BChE (Equus caballus)
Construct: BChE (Lee Biosolutions, Product No. 130–10-1, from equine serum); purchased Lee Biosolutions 130–10-1; host or cells: equine serum
Test: biochemical
Format: biochemical
Details: mean of three independent experiments ± SEM; > X = highest soluble concentration tested; read-out: BChE IC50
The following molecules are listed with their measured pIC50 values.
Lab note: report pIC50 as minus log10 of the concentration in molar units, number only.

The examples below pair each entry with its known result.
| test-smiles | pIC50 |
| --- | --- |
| CCCCCCCCN1C(=O)C(=O)c2ccccc21 | 4.75 |
| CCN1C(=O)C(=O)c2ccccc21 | 3.71 |
| CCCCCN1C(=O)C(=O)c2ccccc21 | 4.08 |
| CCCCCCCCCN1C(=O)C(=O)c2ccccc21 | 5.42 |

Continue with the next molecule.
input: Write down the reported pIC50 of `CCCCN1C(=O)C(=O)c2ccccc21` , test system: BChE (Equus caballus).
output: 4.13

###

Biological target: BChE (Equus caballus, UniProt P81908)
Construct: BChE (Lee Biosolutions, Product No. 130–10-1, from equine serum); purchased Lee Biosolutions 130–10-1; host or cells: equine serum
Sequence (P81908 whole entry): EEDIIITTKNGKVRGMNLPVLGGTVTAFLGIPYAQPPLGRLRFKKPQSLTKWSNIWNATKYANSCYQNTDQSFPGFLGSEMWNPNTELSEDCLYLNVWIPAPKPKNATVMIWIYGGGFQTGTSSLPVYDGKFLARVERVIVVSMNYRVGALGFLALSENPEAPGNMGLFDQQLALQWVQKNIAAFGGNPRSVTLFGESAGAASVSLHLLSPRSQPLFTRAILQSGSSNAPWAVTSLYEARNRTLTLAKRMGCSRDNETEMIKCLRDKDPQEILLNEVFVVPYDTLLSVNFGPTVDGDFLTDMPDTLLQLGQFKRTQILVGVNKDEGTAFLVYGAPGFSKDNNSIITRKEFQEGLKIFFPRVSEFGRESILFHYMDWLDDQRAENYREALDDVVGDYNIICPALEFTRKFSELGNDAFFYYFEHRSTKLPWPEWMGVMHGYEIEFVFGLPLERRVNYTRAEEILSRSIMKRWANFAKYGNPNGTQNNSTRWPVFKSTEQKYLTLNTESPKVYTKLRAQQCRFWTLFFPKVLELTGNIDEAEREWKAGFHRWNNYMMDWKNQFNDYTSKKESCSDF
Assay: biochemical
Assay type: biochemical
Details: calculated as AChE IC50/BChE IC50
measured-attribute: Selectivity

The examples below pair each entry with its known result.
| test-smiles | experimental-target | observed-result |
| --- | --- | --- |
| CN1C(=O)C(=O)c2ccccc21 | BChE (Equus caballus, UniProt P81908) | < 0.6 |
| CCCCCCCCN1C(=O)C(=O)c2ccccc21 | BChE (Equus caballus, UniProt P81908) | > 7.0 |
| CCCCCn1ccc2ccccc21 | BChE (Equus caballus, UniProt P81908) | < 0.8 |
| CCn1ccc2ccccc21 | BChE (Equus caballus, UniProt P81908) | < 0.8 |
| CCCCCCCCn1ccc2ccccc21 | BChE (Equus caballus, UniProt P81908) | < 0.8 |
| CCCCCCCn1ccc2ccccc21 | BChE (Equus caballus, UniProt P81908) | < 0.6 |

input: Could you tell me which Selectivity is on file for `CCCn1ccc2ccccc21` ?
output: < 0.6

input: `CCN1C(=O)C(=O)c2ccccc21` , same question.
output: 1.5

input: `CCCCCCCCCCN1C(=O)C(=O)c2ccccc21` , same question.
output: 12.1

input: `CCCCCN1C(=O)C(=O)c2ccccc21` , same question.
output: 2.4

input: `CCCCCCCCCn1ccc2ccccc21` , same question.
output: < 0.7

###

The following compounds are listed with their measured pIC50 values.
Target: AChE (Electrophorus electricus, UniProt O42275)
Construct: purchased Sigma-Aldrich C2888
Sequence (O42275 24-633): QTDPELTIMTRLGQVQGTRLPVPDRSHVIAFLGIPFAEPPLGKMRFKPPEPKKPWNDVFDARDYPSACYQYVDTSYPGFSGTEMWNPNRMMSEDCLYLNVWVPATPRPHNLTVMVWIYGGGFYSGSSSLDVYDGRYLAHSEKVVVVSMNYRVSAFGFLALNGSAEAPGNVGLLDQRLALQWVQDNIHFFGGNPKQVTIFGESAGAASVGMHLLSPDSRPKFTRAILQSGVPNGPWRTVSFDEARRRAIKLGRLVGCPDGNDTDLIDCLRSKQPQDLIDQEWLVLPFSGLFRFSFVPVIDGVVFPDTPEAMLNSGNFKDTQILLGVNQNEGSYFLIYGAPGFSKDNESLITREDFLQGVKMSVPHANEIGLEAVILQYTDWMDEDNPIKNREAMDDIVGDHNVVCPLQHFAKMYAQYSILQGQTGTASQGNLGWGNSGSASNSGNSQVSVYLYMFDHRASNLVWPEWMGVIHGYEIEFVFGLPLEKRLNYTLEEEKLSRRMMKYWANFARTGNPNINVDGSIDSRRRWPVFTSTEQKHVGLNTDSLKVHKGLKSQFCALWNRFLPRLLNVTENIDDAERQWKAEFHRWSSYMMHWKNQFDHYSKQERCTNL
Assay: AChE inhibition assay (Ellman method)
Type: biochemical
Conditions: mean of three independent experiments ± SEM; > X = highest soluble concentration tested; read-out: AChE IC50
Lab note: report pIC50 as minus log10 of the concentration in molar units, number only.

The examples below pair each entry with its known result.
| compound | experimental-target | pIC50 |
| --- | --- | --- |
| CCN1C(=O)C(=O)c2ccccc21 [Compound 4b, 1-Ethylindoline-2,3-dione] | AChE (Electrophorus electricus, UniProt O42275) | 3.53 |
| CCCCCCCn1ccc2ccccc21 [Compound 5g, 1-Heptyl-1H-indole] | AChE (Electrophorus electricus, UniProt O42275) | 4.46 |
| CCCCCCCCn1ccc2ccccc21 [Compound 5h, 1-Octyl-1H-indole] | AChE (Electrophorus electricus, UniProt O42275) | 4.31 |
| CCCCCN1C(=O)C(=O)c2ccccc21 [Compound 4e, 1-Pentylindoline-2,3-dione] | AChE (Electrophorus electricus, UniProt O42275) | 3.71 |
| CCCn1ccc2ccccc21 [Compound 5c, 1-Propyl-1H-indole] | AChE (Electrophorus electricus, UniProt O42275) | 4.10 |

input: Could you tell me which pIC50 is on file for CCCCCCCCCCN1C(=O)C(=O)c2ccccc21 [Compound 4j, 1-Decylindoline-2,3-dione] ?
output: 4.21

###

The following compounds are listed with their measured IC50 values.
Molecular target: AChE (Electrophorus electricus)
Construct: purchased Sigma-Aldrich C2888
Test: AChE inhibition assay (Ellman method)
Format: biochemical
The reply must contain the numeric value and, after it, the unit.

The examples below pair each entry with its known result.
| test-smiles | experimental-target | IC50 |
| --- | --- | --- |
| Cn1ccc2ccccc21 | AChE (Electrophorus electricus) | 86.7 µM |
| CCn1ccc2ccccc21 | AChE (Electrophorus electricus) | 101 µM |

Continue with the next compound.
input: Could you tell me which IC50 is on file for `CN1C(=O)C(=O)c2ccccc21` ?
output: 647 µM

###

Target: BChE (Equus caballus, UniProt P81908)
Construct: BChE (Lee Biosolutions, Product No. 130–10-1, from equine serum); purchased Lee Biosolutions 130–10-1; host or cells: equine serum
Assay: biochemical
Format: biochemical
Conditions: mean of three independent experiments ± SEM; > X = highest soluble concentration tested; read-out: BChE IC50
measured-attribute: IC50

input: Could you tell me which IC50 is on file for `CCCCCCCn1ccc2ccccc21` ?
output: > 62.5 µM

input: `CCCCn1ccc2ccccc21` , same question.
output: > 125 µM

input: `CCCCCCCCCCN1C(=O)C(=O)c2ccccc21` , same question.
output: 5.16 µM

input: `CCCCCCN1C(=O)C(=O)c2ccccc21` , same question.
output: 90.8 µM

input: `CCCn1ccc2ccccc21` , same question.
output: > 125 µM

input: `CCCN1C(=O)C(=O)c2ccccc21` , same question.
output: 257 µM

input: `CCCCCn1ccc2ccccc21` , same question.
output: > 125 µM

###

Molecular target: BChE (Equus caballus, UniProt P81908)
Construct: BChE (Lee Biosolutions, Product No. 130–10-1, from equine serum); purchased Lee Biosolutions 130–10-1; host or cells: equine serum
Experiment: biochemical
Format: biochemical
Conditions: calculated as AChE IC50/BChE IC50
The following molecules are listed with their measured Selectivity values.

| molecule | Selectivity |
| --- | --- |
| CCCCN1C(=O)C(=O)c2ccccc21 [Compound 4d, 1-Butylindoline-2,3-dione] | 7.3 |

input: Could you tell me which Selectivity is on file for CCCN1C(=O)C(=O)c2ccccc21 [Compound 4c, 1-Propylindoline-2,3-dione] ?
output: 2.0

###

The following compounds are listed with their measured IC50 values.
Target: BChE (Equus caballus)
Construct: BChE (Lee Biosolutions, Product No. 130–10-1, from equine serum); purchased Lee Biosolutions 130–10-1; host or cells: equine serum
Test: biochemical
Format: biochemical
Conditions: mean of three independent experiments ± SEM; > X = highest soluble concentration tested; read-out: BChE IC50

The examples below pair each entry with its known result.
| test-smiles | IC50 |
| --- | --- |
| CCCCCCCCCn1ccc2ccccc21 | > 62.5 µM |
| CCCCCCCN1C(=O)C(=O)c2ccccc21 | 20.7 µM |
| CCCCCCCCCCn1ccc2ccccc21 | > 62.5 µM |
| CCCCCCCCn1ccc2ccccc21 | > 62.5 µM |

input: Could you tell me which IC50 is on file for `CCCCCCn1ccc2ccccc21` ?
output: > 125 µM

###

Molecular target: BChE (Equus caballus, UniProt P81908)
Construct: BChE (Lee Biosolutions, Product No. 130–10-1, from equine serum); purchased Lee Biosolutions 130–10-1; host or cells: equine serum
Test: biochemical
Assay type: biochemical
Conditions: calculated as AChE IC50/BChE IC50
measured-attribute: Selectivity

The examples below pair each entry with its known result.
| test-smiles | observed-result |
| --- | --- |
| Cn1ccc2ccccc21 | < 0.7 |
| CCCCCCCCCCn1ccc2ccccc21 | < 0.8 |
| CCCCCCN1C(=O)C(=O)c2ccccc21 | > 1.4 |
| CCCCCCCN1C(=O)C(=O)c2ccccc21 | 3.3 |

Continue with the next compound.
input: Could you tell me which Selectivity is on file for `CCCCCCn1ccc2ccccc21` ?
output: < 0.6
